Give IC50 for every item shown.
# target_or_system: MLXBIR3SG (Homo sapiens, UniProt Q96CA5, S150G)
# Sequence (Q96CA5 with tags, fused parts or gaps S150G): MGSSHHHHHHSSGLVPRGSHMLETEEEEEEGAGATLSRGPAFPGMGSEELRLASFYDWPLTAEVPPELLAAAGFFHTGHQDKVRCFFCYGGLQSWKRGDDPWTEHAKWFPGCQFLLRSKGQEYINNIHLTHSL
# protocol_description: Fluorescence Polarization Peptide Binding Assay
# experimental_conditions: competition with 5 nM AVP-diPhe-FAM probe, MLXBIR3SG at 30 nM
*1 amine or outer side, *2 acyl side, *3 side chain or, on linkers, in order; H or OH if unused. Where a SMILES comes first, the peptide text is derived from it. Bridges are numbered along the chain shown (N, C = ends). Roman numbers before positions name the chains, in order. [ ]: non-standard residue; d: D form. NH(CH2)3(OCH2CH2)2O(CH2)3NH = C(CN[*:1])COCCOCCOCCCN[*:2]; Dip = N[C@H](C(=O)O)C(c1ccccc1)c1ccccc1; Chg = N[C@H](C(=O)O)C1CCCCC1; NMeA = CN[C@@H](C)C(=O)O; dNMeA = CN[C@H](C)C(=O)O

[Q] State the recorded IC50 for this entry: CN[C@@H](C)C(=O)N[C@H](C(=O)N1CCC[C@H]1C(=O)N[C@H](C(=O)NCCCOCCOCCOCCCNC(=O)[C@@H](NC(=O)[C@@H]1CCCN1C(=O)[C@@H](NC(=O)[C@@H](C)NC)C1CCCCC1)C(c1ccccc1)c1ccccc1)C(c1ccccc1)c1ccccc1)C1CCCCC1 [compound 10] (I: H-[NMeA][Chg]P[Dip] / II: H-[dNMeA][Chg]P[Dip]; linker I:C-II:C via NH(CH2)3(OCH2CH2)2O(CH2)3NH)
[A] 1320 nM

***
[Q] State the recorded IC50 for this entry: CN[C@@H](C)C(=O)N[C@H](C(=O)N1CCC[C@H]1C(=O)Nc1sc(-c2ccccn2)nc1-c1ccccc1)c1ccc(OCC#CC#CCOc2ccc([C@H](NC(=O)[C@H](C)NC)C(=O)N3CCC[C@H]3C(=O)Nc3sc(-c4nccn4C)nc3-c3ccccc3)cc2)cc1
[A] 3820 nM
